Each recorded value in this set is attributed to ChEMBL document CHEMBL5321272.

experiment: Selectivity ratio of IC50 for inhibition of c-KIT (unknown origin) to IC50 for inhibition of FLT3 D835Y mutant (unknown origin)
Here the recorded Ratio IC50 is given for each entry.
quantity.name: Ratio IC50

smiles.text: CC(C)(O)C(=O)N1Cc2ccc(Nc3ncc(C(F)(F)F)c(N[C@H]4CC[C@@H](N)CC4)n3)cc2C1
endpoint.value: 2290

smiles.text: CC(=O)N1Cc2ccc(Nc3ncc(C(F)(F)F)c(N[C@H]4CC[C@@H](N)CC4)n3)cc2C1
endpoint.value: 1370

smiles.text: CC(C)(O)CC(=O)N1CCc2cc(Nc3ncc(C(F)(F)F)c(N[C@H]4CC[C@@H](N)CC4)n3)ccc21
endpoint.value: 1760

smiles.text: CC(C)(O)CC(=O)N1CCc2ccc(Nc3ncc(C(F)(F)F)c(N[C@H]4CC[C@@H](N)CC4)n3)cc2C1
endpoint.value: 1820

smiles.text: CC(C)(O)C(=O)N1CCc2cc(Nc3ncc(C(F)(F)F)c(N[C@H]4CC[C@@H](N)CC4)n3)ccc2C1
endpoint.value: 589

smiles.text: CC(=O)N1CCc2ccc(Nc3ncc(C(F)(F)F)c(N[C@H]4CC[C@@H](N)CC4)n3)cc2C1
endpoint.value: 3720

smiles.text: CC(=O)N1CCc2cc(Nc3ncc(C(F)(F)F)c(N[C@H]4CC[C@@H](N)CC4)n3)ccc2C1
endpoint.value: 1240

smiles.text: CN1CCc2cc(Nc3ncc(C(F)(F)F)c(N[C@H]4CC[C@@H](N)CC4)n3)ccc2C1=O
endpoint.value: 4150

smiles.text: N[C@H]1CC[C@@H](Nc2nc(Nc3ccc4c(c3)CN(C(=O)CO)C4)ncc2C(F)(F)F)CC1
endpoint.value: 1870

smiles.text: CC(=O)N1CCc2cc(Nc3ncc(C(F)(F)F)c(N[C@H]4CC[C@@H](N)CC4)n3)ccc21
endpoint.value: 4870

smiles.text: N[C@H]1CC[C@@H](Nc2nc(Nc3ccc4c(c3)CCN(C(=O)CO)C4)ncc2C(F)(F)F)CC1
endpoint.value: 4420

smiles.text: C[C@H](O)C(=O)N1CCc2cc(Nc3ncc(C(F)(F)F)c(N[C@H]4CC[C@@H](N)CC4)n3)ccc2C1
endpoint.value: 766

smiles.text: CC(C)(O)CC(=O)N1CCc2cc(Nc3ncc(C(F)(F)F)c(N[C@H]4CC[C@@H](N)CC4)n3)ccc2C1
endpoint.value: 1740

smiles.text: C[C@@H](O)C(=O)N1CCc2cc(Nc3ncc(C(F)(F)F)c(N[C@H]4CC[C@@H](N)CC4)n3)ccc2C1
endpoint.value: 1440

smiles.text: CC(C)(O)CC(=O)N1Cc2ccc(Nc3ncc(C(F)(F)F)c(N[C@H]4CC[C@@H](N)CC4)n3)cc2C1
endpoint.value: 2200

smiles.text: CC(C)(O)C(=O)N1CCc2ccc(Nc3ncc(C(F)(F)F)c(N[C@H]4CC[C@@H](N)CC4)n3)cc2C1
endpoint.value: 4030

###

biological target: hERG (KCNH2) (Homo sapiens); experiment: Inhibition of hERG expressed in HEK293 cells at 20 uM by whole cell patch clamp analysis; type: toxicity, cell-based; details: HEK293 cells expressing hERG
Sequence (Q12809 whole entry): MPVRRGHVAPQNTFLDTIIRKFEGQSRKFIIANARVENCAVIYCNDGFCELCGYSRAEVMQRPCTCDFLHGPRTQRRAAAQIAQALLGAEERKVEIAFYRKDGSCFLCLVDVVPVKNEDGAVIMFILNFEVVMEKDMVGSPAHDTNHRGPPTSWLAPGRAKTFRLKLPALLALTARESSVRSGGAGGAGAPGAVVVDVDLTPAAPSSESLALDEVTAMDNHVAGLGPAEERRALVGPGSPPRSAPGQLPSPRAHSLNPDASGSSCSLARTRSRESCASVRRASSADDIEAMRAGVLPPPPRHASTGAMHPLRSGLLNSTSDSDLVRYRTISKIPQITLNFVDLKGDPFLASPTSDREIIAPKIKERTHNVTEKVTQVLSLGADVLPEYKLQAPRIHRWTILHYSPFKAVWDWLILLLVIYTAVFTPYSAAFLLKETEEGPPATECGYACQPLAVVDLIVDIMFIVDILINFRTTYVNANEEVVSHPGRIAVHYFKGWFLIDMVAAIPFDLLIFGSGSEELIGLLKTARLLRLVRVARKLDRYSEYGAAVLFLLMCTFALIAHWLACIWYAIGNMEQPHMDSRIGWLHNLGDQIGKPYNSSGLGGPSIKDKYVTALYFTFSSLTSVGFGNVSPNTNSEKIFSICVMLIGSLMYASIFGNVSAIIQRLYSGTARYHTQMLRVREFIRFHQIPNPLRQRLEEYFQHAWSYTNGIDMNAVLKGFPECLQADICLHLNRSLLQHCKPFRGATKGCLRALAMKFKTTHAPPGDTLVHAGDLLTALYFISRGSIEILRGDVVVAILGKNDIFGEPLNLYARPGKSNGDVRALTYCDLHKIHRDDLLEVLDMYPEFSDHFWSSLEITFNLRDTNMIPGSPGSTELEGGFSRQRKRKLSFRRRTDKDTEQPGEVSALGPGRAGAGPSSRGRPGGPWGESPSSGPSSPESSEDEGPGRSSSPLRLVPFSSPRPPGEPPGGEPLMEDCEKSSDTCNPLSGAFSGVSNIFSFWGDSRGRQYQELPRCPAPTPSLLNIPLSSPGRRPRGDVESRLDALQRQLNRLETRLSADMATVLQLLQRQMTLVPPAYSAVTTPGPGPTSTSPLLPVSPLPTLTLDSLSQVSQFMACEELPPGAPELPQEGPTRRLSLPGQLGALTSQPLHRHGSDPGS
Threshold check on inhibition at 20 µM: at or above 20% gives Yes, strictly below gives No.

smiles.text: CC(C)(O)Cn1cnc2cc(Nc3ncc(C(F)(F)F)c(N[C@H]4CC[C@@H](N)CC4)n3)ccc2c1=O
measured.on: hERG (KCNH2) (Homo sapiens)
class.name: No
//
smiles.text: CC(C)(O)C(=O)N1Cc2ccc(Nc3ncc(C(F)(F)F)c(N[C@H]4CC[C@@H](N)CC4)n3)cc2C1
measured.on: hERG (KCNH2) (Homo sapiens)
class.name: No
//
smiles.text: CC(C)(O)CC(=O)N1CCc2cc(Nc3ncc(C(F)(F)F)c(N[C@@H]4CCCNC4)n3)ccc2C1
measured.on: hERG (KCNH2) (Homo sapiens)
class.name: Yes
//
smiles.text: CC(=O)N1CCc2cc(Nc3ncc(C(F)(F)F)c(N[C@H]4CC[C@@H](N)CC4)n3)ccc2C1
measured.on: hERG (KCNH2) (Homo sapiens)
class.name: Yes
//
smiles.text: CC(C)(O)Cn1ccc2cc(Nc3ncc(C(F)(F)F)c(N[C@H]4CC[C@@H](N)CC4)n3)ccc2c1=O
measured.on: hERG (KCNH2) (Homo sapiens)
class.name: Yes
//
smiles.text: CC(C)(O)C(=O)N1CCc2cc(Nc3ncc(C(F)(F)F)c(N[C@H]4CC[C@@H](N)CC4)n3)ccc2C1
measured.on: hERG (KCNH2) (Homo sapiens)
class.name: No
//
smiles.text: CC(C)(O)CC(=O)N1CCc2cc(Nc3ncc(C(F)(F)F)c(NCCCN)n3)ccc2C1
measured.on: hERG (KCNH2) (Homo sapiens)
class.name: No
//
smiles.text: C[C@@H](O)C(=O)N1CCc2cc(Nc3ncc(C(F)(F)F)c(N[C@H]4CC[C@@H](N)CC4)n3)ccc2C1
measured.on: hERG (KCNH2) (Homo sapiens)
class.name: No
